Provide the reported inhibition of each item.
target: L-lactate dehydrogenase (Plasmodium falciparum (isolate CDC / Honduras))
test: PfLDH activity inhibition – cell lysate, 3D7 strain, counter-screen for P. falciparum growth inhibition project (AID 2304);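 further: 0% = vehicle and 100% = reference inhibitor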
conditions: P. falciparum 3D7 crude extract, LDH APAD/NBT absorbance; at 2 µM; stronger effect = higher value
Reply with just the number (in %).

Enquiry: Request: inhibition, test system L-lactate dehydrogenase (Plasmodium falciparum (isolate CDC / Honduras)), entry COc1cccc(CN2CCCC(CCC(=O)Nc3ccc(C(F)(F)F)cc3)C2)c1O (centres undefined)
Return: -2

Enquiry: Next: "Cc1nc(C)c(CC(=O)Nc2ccc(-c3ccc(-c4nc5ccc(C(F)(F)F)cc5[nH]4)s3)cc2)s1"
Return: -8

Enquiry: Next: "Cn1cccc1CCNCc1ccc(-c2cccc(-c3nc4ccc(F)cc4[nH]3)c2)cc1"
Return: 1

Enquiry: Next: "Cc1cc2ncn(-c3ccnc(N4CCN(CCCN5CCCC5)CC4)n3)c2cc1C"
Return: -4

Enquiry: Next: "CN1CCN(CC(=O)Nc2cccc(-c3cccc(-c4nc5ccc(F)cc5[nH]4)c3)c2)CC1"
Return: 6

Enquiry: Next: CC(CN1CCN(C)CC1)C(=O)Nc1ccc(-c2ccc(-c3nc4ccc(F)cc4[nH]3)cc2)cc1 (centres undefined)
Return: -5

Enquiry: Next: "CC(C)Nc1nc(NCCc2cnc[nH]2)nc(NCc2ccc(Cl)c(Cl)c2)n1"
Return: 7

Enquiry: Next: "O=S(=O)(Nc1cccc(CCN2CCC(N3CCCCC3)CC2)c1)c1ccc(Oc2ccccc2)cc1"
Return: 0

Enquiry: Next: "COc1ccc(CCNC(=O)c2ccccc2O)cc1-c1ccc(C(C)(C)C)cc1"
Return: 0

Enquiry: Next: "c1ccc(CCNCc2ccc(-c3ccc(CNc4ccc5ncccc5c4)cc3)cc2)cc1"
Return: -1

Enquiry: Next: COc1ccc(CN2CCCC(Nc3ccc(F)c(F)c3)C2)c(O)c1 (centres undefined)
Return: 3

Enquiry: Next: COc1cc2c(c(Cl)c1OC)CCN(Cc1ccccc1)CC2c1ccc(NC(=O)C(F)(F)F)cc1 (centres undefined)
Return: -2

Enquiry: Next: CN(C)CCOc1ccc2c(c1)CN(C)CC2c1ccccc1 (centres undefined)
Return: -2

Enquiry: Next: "Cc1cccc(Cn2c(C(N)=O)nn(-c3ccc([N+](=O)[O-])cc3C#N)c2=S)c1"
Return: 2

Enquiry: Next: "CN1CCN(S(=O)(=O)c2cccc(Nc3nccc(N(C)c4ccc5c(c4)nc(NC(=O)c4cccs4)n5C)n3)c2)CC1"
Return: -6

Enquiry: Next: "Nc1ncc(-c2ccsc2)c2ccc(-c3cc(NCc4ccccc4)ncn3)cc12"
Return: 3

Enquiry: Next: O=C(NC1CCN(Cc2ccccc2O)C1)c1ccc(-c2ccccc2)cc1 (centres undefined)
Return: 4

Enquiry: Next: "CN(C)Cc1ccc(-c2cc3ncnc(Nc4ccc(OCc5cccc(F)c5)c(Cl)c4)c3s2)[nH]1"
Return: 6

Enquiry: Next: "c1cc(CN2CCC(CCN3CCCCC3)CC2)cc(-c2csc(-c3nc4ccccc4[nH]3)c2)c1"
Return: -3
